- Experimental details: amyloid nucleation score (Sup35N fusion, yeast selection) (log enrichment); library NNK3; higher = more nucleation; inactive = no reads after selection;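 also: zero at mode of non-aggregating sequences after 7 days selection at 30°C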
Measured attribute: amyloid nucleation score

// solved cases for amyloid nucleation score follow
[[record]]
substance = "YGYFHTRGYVAFE"
measured_attribute = "amyloid nucleation score"
data_value = "inactive"

[[record]]
substance = "MLDFICAVFSVKNWVGICFV"
measured_attribute = "amyloid nucleation score"
data_value = "inactive"

[[record]]
substance = "LYPVTKR"
measured_attribute = "amyloid nucleation score"
data_value = "inactive"

[[record]]
substance = "IKCDLRSSVAWDLSVILYSF"
measured_attribute = "amyloid nucleation score"
data_value = "inactive"

[[record]]
substance = "VRNRWA"
measured_attribute = "amyloid nucleation score"
data_value = "inactive"


q: Given DFGVYNEHHGYLILGIKRDQ , state its recorded amyloid nucleation score.
a: inactive

q: Again, but for LNFTCEVGGVYEVDVNSCLL
a: inactive

q: Again, but for DGGRTSLLLTEKKVR
a: inactive

q: Again, but for YLVMRSKYLYRFYAMVLKDL
a: inactive
